Test system: HEK293
procedureDetails: Antiproliferative activity against human HEK293 cells by MTT assay
Assay type: cell-based
measuredMetric: IC50 (µM)
Numeric answer only, unit µM assumed.

Sample records with IC50:
INSERT INTO assay_data (smiles, reportedmeasurement) VALUES
  ('Nc1c(C(=O)N/N=C/c2ccccc2)oc2nc(-c3ccccc3)cc(C(F)(F)F)c12', 70),
  ('CCCn1c(C)nc2c(oc3nc(-c4cccs4)cc(C(F)(F)F)c32)c1=O', 68);

QUERY: Would you kindly share the measured IC50 for `CCNC(=O)c1oc2nc(-c3cccs3)cc(C(F)(F)F)c2c1N` ?
RESULT: 62
